target: JAK3 (Homo sapiens); construct: 5 μl of catalytic domain recombinant Kinase enzyme+Tyr peptide substrate (Invitrogen, CA); test: Z'-LYTE kinase assay JAK3
Sequence (P52333 822-1111 limits assumed): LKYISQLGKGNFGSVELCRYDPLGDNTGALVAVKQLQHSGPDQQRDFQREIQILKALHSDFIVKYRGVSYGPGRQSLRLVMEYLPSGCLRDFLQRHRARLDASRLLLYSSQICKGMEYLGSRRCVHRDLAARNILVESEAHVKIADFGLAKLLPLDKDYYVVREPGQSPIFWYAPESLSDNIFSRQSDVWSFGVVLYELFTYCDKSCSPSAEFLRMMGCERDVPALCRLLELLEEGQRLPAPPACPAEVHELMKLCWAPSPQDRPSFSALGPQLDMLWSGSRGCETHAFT
measurement name: IC50

Some solved entries appear below for comparison.
COc1ccc(Nc2cc(NCc3cc(F)ccc3F)c(C(N)=O)cn2)cc1; 10 to 100 nM
CN(C)C(=O)c1ccc(Nc2cc(NCc3c(F)cccc3F)c(C(N)=O)cn2)cc1; 1 to 10 nM
CN(C(=O)C1CC1)c1ccc(Nc2cc(NCc3cccc4cc[nH]c34)c(C(N)=O)cn2)cc1; 100 to 1000 nM

Let's switch to this compound now.
For `NC(=O)c1cnc(Nc2ccc(C3CCOCC3)cc2)cc1NCc1ccccc1F` , what is its reported IC50?
10 to 100 nM

* * *

biological target: JAK1 (Homo sapiens); construct: 5 μl of catalytic domain recombinant Kinase enzyme+Tyr peptide substrate (Invitrogen, CA); assay: Z'-LYTE kinase assay JAK1
measurement name: IC50

Some solved entries appear below for comparison.
NC(=O)c1cnc(Nc2cc(F)cc(F)c2)cc1NCc1cccc2[nH]ccc12 [Example 323]; > 1000 nM
COC[C@@H](Nc1cc(Nc2cccc(N3CCOCC3)c2)ncc1C(N)=O)c1ccccc1 [Example 261]; > 1000 nM
COc1ccc(Nc2cc(NCc3cccc4c3ccn4C)c(C(N)=O)cn2)cc1 [Example 303]; > 1000 nM
NC(=O)c1cnc(Nc2ccc(C3CCOCC3)cc2)cc1NCC1CC1 [Example 153]; > 1000 nM

State the recorded IC50 for every item in the following list.
1. Cc1cc(Nc2cc(NCc3ccccc3)c(C(N)=O)cn2)ccc1C(=O)N1CCC1 [Example 448]
2. COC(=O)N(C)c1ccc(Nc2cc(NCc3cccc4[nH]ccc34)c(C(N)=O)cn2)cc1 [Example 474]
3. CC(C)[C@H](C)Nc1cc(Nc2ccc(C3CCOCC3)cc2)ncc1C(N)=O [Example 186]
4. C[C@H](Nc1cc(Nc2ccc(C3CCOCC3)cc2)ncc1C(N)=O)C(C)(C)C [Example 167]

1. 100 to 1000 nM
2. 10 to 100 nM
3. 100 to 1000 nM
4. > 1000 nM

* * *

target: TYK2 (Homo sapiens, UniProt P29597); construct: 5 μl of catalytic domain recombinant Kinase enzyme+Tyr peptide substrate (Invitrogen, CA); purchased Invitrogen; assay: Z'-LYTE kinase assay TYK2; type: biochemical
Sequence (P29597 897-1176 limits assumed): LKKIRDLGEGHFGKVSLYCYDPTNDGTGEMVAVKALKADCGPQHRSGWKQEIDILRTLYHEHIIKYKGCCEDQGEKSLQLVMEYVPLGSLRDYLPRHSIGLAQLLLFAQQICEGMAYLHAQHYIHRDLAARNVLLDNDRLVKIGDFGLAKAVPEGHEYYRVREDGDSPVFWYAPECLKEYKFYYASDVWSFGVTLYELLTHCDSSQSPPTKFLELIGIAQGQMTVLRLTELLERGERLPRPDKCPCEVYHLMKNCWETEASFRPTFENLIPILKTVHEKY
pIC50: −log10 of the molar value.
Hi there, I'd appreciate the recorded pIC50 for every entry that follows.

CS(=O)(=O)Nc1cccc(Nc2cc(NCc3ccccc3)c(C(N)=O)cn2)c1; 6.00 to 7.00
Cc1cc(Nc2cc(NCc3cccc4ccsc34)c(C(N)=O)cn2)ccc1C(=O)N1CCCC1; 7.00 to 8.00
CC(=O)N1CCN(c2ccc(Nc3cc(NC4(c5ccccc5F)CC4)c(C(N)=O)cn3)cc2)CC1; 6.00 to 7.00
NC(=O)c1cnc(Nc2ccc(N3CCOCC3)cc2)cc1NCc1cccc(F)c1; 6.00 to 7.00

State the recorded pIC50 for every item in the following list.
1. CC(=O)N1CCN(c2ccc(Nc3cc(NC4CCCC4)c(C(N)=O)cn3)cc2)CC1
2. CCC(=O)N1CCC(c2ccc(Nc3cc(NCc4cc(F)ccc4F)c(C(N)=O)cn3)cc2)CC1
3. CC(=O)Nc1cccc(Nc2nc(NC3CCCC3)c(C(N)=O)cc2F)c1
4. CS(=O)(=O)c1ccc(Nc2cc(NCc3cccc4[nH]ccc34)c(C(N)=O)cn2)cc1
5. NC(=O)c1cc(F)c(Nc2ccc(OCCN3CCCC3)cc2)nc1NCc1ccccc1
6. NC(=O)c1cc(F)c(Nc2ccc(OCCN3CCCC3)cc2)nc1NC1CCCC1
7. N#CCOc1ccc(Nc2cc(NCc3ccccc3)c(C(N)=O)cn2)cc1

7.00 to 8.00
6.00 to 7.00
6.00 to 7.00
7.00 to 8.00
< 6.00
< 6.00
< 6.00

State the recorded pIC50 for every item in the following list.
1. COc1ccc(Nc2cc(NCc3cccc4ccsc34)c(C(N)=O)cn2)cc1
2. CCC(=O)N1CCC(c2ccc(Nc3cc(NCc4cccnc4)c(C(N)=O)cn3)cc2)CC1
3. N#CCCc1ccc(Nc2cc(NCc3ccccc3)c(C(N)=O)cn2)cc1
4. CC(=O)Nc1cccc(Nc2cc(NCc3cccs3)c(C(N)=O)cn2)c1
5. CNC(=O)[C@@H]1CCCN(c2ccc(Nc3cc(NCc4ccccc4)c(C(N)=O)cn3)cc2)C1
6. C[C@@H](Nc1nc(Nc2ccc(OCCN3CCCC3)cc2)c(F)cc1C(N)=O)c1ccccc1

["< 6.00", "6.00 to 7.00", "6.00 to 7.00", "7.00 to 8.00", "6.00 to 7.00", "< 6.00"]

* * *

target: TYK2 (Homo sapiens, UniProt P29597); construct: 5 μl of catalytic domain recombinant Kinase enzyme+Tyr peptide substrate (Invitrogen, CA); assay: Z'-LYTE kinase assay TYK2
measurement name: IC50

Some solved entries appear below for comparison.
NC(=O)c1cnc(Nc2ccc(N3CCOCC3)cc2)c(Cl)c1NCc1cccc(F)c1 [Example 377]; > 1000 nM
Cc1cc(Nc2cc(NCc3ccccc3)c(C(N)=O)cn2)ccc1C(=O)NCCO [Example 449]; 100 to 1000 nM
CCC(=O)N1CCC(c2ccc(Nc3cc(NCc4ccccc4F)c(C(N)=O)cn3)cc2)CC1 [Example 79]; 100 to 1000 nM
CC(=O)N1CCN(c2ccc(Nc3cc(NCc4cccc(F)c4)c(C(N)=O)cn3)cc2)CC1 [Example 229]; 100 to 1000 nM
NC(=O)c1cnc(Nc2cccc(OCCN3CCCC3)c2)cc1NCc1cccnc1 [Example 60]; > 1000 nM
NC(=O)c1cnc(Nc2cccc(OCCN3CCCC3)c2)cc1NC1(c2ccccc2)CC1 [Example 363]; > 1000 nM

State the recorded IC50 for every item in the following list.
1. COCCOc1cccc(Nc2cc(NCc3ccccc3)c(C(N)=O)cn2)c1 [Example 433]
2. NC(=O)c1cnc(Nc2ccc(C(=O)N3CCCC3)cc2)cc1NCc1ccccc1 [Example 39]

> 1000 nM
100 to 1000 nM

* * *

target: JAK1 (Homo sapiens); construct: 5 μl of catalytic domain recombinant Kinase enzyme+Tyr peptide substrate (Invitrogen, CA); assay: Z'-LYTE kinase assay JAK1
pIC50: −log10 of the molar value.
measurement name: pIC50

Some solved entries appear below for comparison.
COC(=O)N1CCC[C@H](CNc2cc(Nc3ccc(OC)cc3)ncc2C(N)=O)C1; < 6.00
NC(=O)c1cc(F)c(Nc2cccc(-n3nccn3)c2)nc1N; < 6.00
NC(=O)c1cnc(Nc2ccc(CC(=O)NCC(F)(F)F)cc2)cc1NCc1ccccc1; 6.00 to 7.00
NC(=O)c1cnc(Nc2ccc(C(=O)N3CCC3)cc2)cc1NCC1CCCC1; 6.00 to 7.00
CS(=O)(=O)N1CCC(Nc2cc(Nc3ccc(C4CCOCC4)cc3)ncc2C(N)=O)CC1; 6.00 to 7.00

State the recorded pIC50 for every item in the following list.
1. COc1ccc(Nc2cc(NCc3cncnc3)c(C(N)=O)cn2)cc1
2. NC(=O)c1cnc(Nc2cccc(N3CCNCC3)c2)cc1NC1(c2ccccc2)CC1
3. Cc1cc(Nc2cc(NCc3cncc(F)c3)c(C(N)=O)cn2)ccc1C(=O)N(C)C

1. < 6.00
2. < 6.00
3. 6.00 to 7.00

* * *

Hi there, I'd appreciate the recorded pIC50 for every entry that follows.
target: JAK1 (Homo sapiens, UniProt P23458); construct: 5 μl of catalytic domain recombinant Kinase enzyme+Tyr peptide substrate (Invitrogen, CA); assay: Z'-LYTE kinase assay JAK1
Sequence (P23458 875-1153 limits assumed): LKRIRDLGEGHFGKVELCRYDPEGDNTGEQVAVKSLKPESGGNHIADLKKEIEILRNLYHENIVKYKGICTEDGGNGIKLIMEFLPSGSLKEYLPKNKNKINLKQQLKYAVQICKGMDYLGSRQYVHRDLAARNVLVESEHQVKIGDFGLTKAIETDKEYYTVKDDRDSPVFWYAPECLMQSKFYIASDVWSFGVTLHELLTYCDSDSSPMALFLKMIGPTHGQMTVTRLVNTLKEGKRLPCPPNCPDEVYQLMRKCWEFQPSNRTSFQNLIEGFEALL
pIC50: −log10 of the molar value.

Some solved entries appear below for comparison.
CC(=O)N1CCN(c2ccc(Nc3cc(NCC4CCCC4)c(C(N)=O)cn3)cc2)CC1 [Example 245]; 6.00 to 7.00
CN(C)S(=O)(=O)c1ccc(Nc2cc(NCC3CCCC3)c(C(N)=O)cn2)cc1 [Example 97]; < 6.00
CCC(=O)N1CC(c2ccc(Nc3cc(NCc4cccc(F)n4)c(C(N)=O)cn3)cc2)C1 [Example 490]; 6.00 to 7.00
NC(=O)c1cnc(Nc2cccc(C3CCOCC3)c2)cc1NCc1cc(F)cc(F)c1 [Example 206]; 6.00 to 7.00
CCC(=O)N1CCC(c2ccc(Nc3cc(NCc4cncc(F)c4)c(C(N)=O)cn3)cc2)CC1 [Example 188]; 6.00 to 7.00
Cc1ccc(Nc2cc(NCc3cncc(F)c3)c(C(N)=O)cn2)cc1 [Example 311]; 6.00 to 7.00
Cc1cc(Nc2cc(NCc3cncnc3)c(C(N)=O)cn2)ccc1C(=O)N(C)C [Example 287]; < 6.00
CC(=O)N1CCC[C@H](CNc2cc(Nc3ccc(C(=O)N(C)C)c(F)c3)ncc2C(N)=O)C1 [Example 275]; < 6.00

State the recorded pIC50 for every item in the following list.
1. COc1ccc(Nc2cc(NC[C@H]3CCCN(S(=O)(=O)C4CC4)C3)c(C(N)=O)cn2)cc1 [Example 292]
2. Cc1cc(Nc2cc(NCc3cccc(F)c3F)c(C(N)=O)cn2)ccc1C(=O)N1CCOCC1 [Example 455]
3. CCS(=O)(=O)N1CCC(c2ccc(Nc3cc(NCc4ccccc4F)c(C(N)=O)cn3)cc2)CC1 [Example 112]
4. Cc1cc(Nc2cc(NCc3ccccc3)c(C(N)=O)cn2)ccc1C(=O)N1CCOCC1 [Example 447]

< 6.00
6.00 to 7.00
< 6.00
6.00 to 7.00
